# target of assay: Cbl-b (Homo sapiens (Human))
# Sequence (Q13191 40-426): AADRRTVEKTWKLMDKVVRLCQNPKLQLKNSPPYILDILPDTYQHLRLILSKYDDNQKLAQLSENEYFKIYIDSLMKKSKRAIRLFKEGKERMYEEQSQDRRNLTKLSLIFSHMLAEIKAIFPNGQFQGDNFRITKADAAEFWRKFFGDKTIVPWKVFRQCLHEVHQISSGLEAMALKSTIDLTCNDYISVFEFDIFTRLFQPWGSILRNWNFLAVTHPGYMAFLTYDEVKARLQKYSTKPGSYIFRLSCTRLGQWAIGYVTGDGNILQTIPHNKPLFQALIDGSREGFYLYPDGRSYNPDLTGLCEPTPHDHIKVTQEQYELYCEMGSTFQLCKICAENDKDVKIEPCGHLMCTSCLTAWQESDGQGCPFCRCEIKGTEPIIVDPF
# assay details: Cbl-b LCK Ub TR-FRET assay (Cbl-b Lck HTRF)
# Assay type: biochemical
# test settings: ratio C-cbl Lck HTRF IC50 / Cbl-b Lck HTRF IC50
parameter measured: fold-selectivity (Cbl-b over C-cbl) (x)

Guide cases for fold-selectivity (Cbl-b over C-cbl), answers given:
1. CO[C@H]1C[C@](c2cc(NC(C)C)cc(N3Cc4c(cc(CNC5(C)CCC5)cc4C(F)(F)F)C3=O)c2)(c2nncn2C)C1 | 1.3
2. CCO[C@H]1C[C@@](c2cccc(N3Cc4c(cc(CNC5(C)CCC5)cc4C(F)(F)F)C3=O)c2)(c2nncn2C)C1 | 2.5
3. Cn1cnnc1C(c1cccc(N2Cc3c(cc(CNC4(C)CCC4)cc3C(F)(F)F)C2=O)c1)[C@H]1C[C@H](Cl)C1 (single isomer, unassigned) [Compound 356] | 6.1
4. Cn1cnnc1[C@@H](c1cccc(N2Cc3c(cc(CNC4(C)CCC4)cc3C(F)(F)F)C2=O)c1)C1COC1 (single isomer, unassigned) | 2.0
5. CO[C@H]1C[C@](c2cccc(N3Cc4c(cc([C@H](C)NC5(C)CCC5)cc4C(F)(F)F)C3=O)c2)(c2nncn2C)C1 (single isomer, unassigned) | 6.7

[I] CC[C@H](NC1(C)CCC1)c1cc2c(c(C(F)(F)F)c1)CN(c1cccc([C@@H](c3nncn3C)C3COC3)c1)C2=O
[II] Cn1cnnc1[C@]1(c2cccc(N3Cc4c(cc(CNC5(C)CCC5)cc4C(F)(F)F)C3=O)c2)C[C@H](OCF)C1
q: // max by fold-selectivity (Cbl-b over C-cbl) over [ I , II ] Respond with the label that goes with your answer.
a: II

Origin of values: patent US12187709B2
